# System: HS 578T breast
# EXPERIMENT NOTES: NCI-60 one-dose screen, 48 h (100 = growth as untreated, 0 = no growth, -100 = all killed)
# PARTICULARS: 10 µM
About 83,000 compounds went through this panel and 20% of them were active in at least one assay; those are over-represented in the sample as a whole.
OBSERVATION TYPE: growth (%)
Give the number; % is assumed, so skip it.

Quickly give me recorded growth for "O=[N+]([O-])c1cccc(/C=N/NC(=S)NC23CC4CC(CC(C4)C2)C3)c1"
67.5

Quickly give me recorded growth for "CCCc1nc(C(C)(C)O)c(C(=O)O)n1Cc1ccc(-c2ccccc2-c2nn[nH]n2)cc1"
102

Quickly give me recorded growth for "COc1ccc(N=Nc2cc(OC)c(OC)c(OC)c2)cc1"
79.3

Quickly give me recorded growth for "O=C(CN1CCN(C(=O)c2ccccc2)CC1)Nc1ccccc1SCc1ccccc1"
83.9

Quickly give me recorded growth for "Cc1ccc(S(=O)(=O)N(C)CCCCCC(=O)O)cc1"
108

Quickly give me recorded growth for "O=C(/C=C/C=C/c1c(C2CC2)nc2ccccc2c1-c1ccc(F)cc1)c1cccs1"
24.4

Quickly give me recorded growth for "COc1ccc(-c2nn(-c3cccc(Cl)c3)cc2-c2nc(N)[nH]c(=O)c2C#N)cc1"
76.6

Quickly give me recorded growth for "COc1ccc2c(c1)CC=C1[C@@H]2CC[C@]2(C)C(=O)/C(=N/O)C[C@@H]12"
90.3

Quickly give me recorded growth for COc1cc(CNC(=O)C2CSC3(C)c4ccccc4C(=O)N23)cc(OC)c1OC (stereo not given)
94.1

Quickly give me recorded growth for "CCOC(=O)c1cc(C(=O)c2ccc(OC)c(OC)c2)n2ccncc12"
102
